biological target: HLA-B*40:01; assay: IEDB peptide-MHC binding, purified MHC/competitive/radioactivity; filed as Kd, often an IC50 or EC50 that approximates it; bounds were set here for any values at or beyond the usual limits of such assays; conditions: source organism: Mammarenavirus brazilense
Measurement Kind: Kd (µM)
I only need the number, in µM, no unit after it.

Reported HLA-B*40:01 Kd for item SDHLLSEML was 5.29

###

target: HLA-A*26:02; experiment: IEDB peptide-MHC binding, purified MHC/competitive/fluorescence; filed as Kd, often an IC50 or EC50 that approximates it; bounds were set here for any values at or beyond the usual limits of such assays; conditions: source organism: Vaccinia virus WR
Measurement Kind: pKd
Note on pKd: it is the negative log10 of concentration, concentration in mol/L.

Lab note: EYYFRNEVF gave pKd of 5.46

Where do the numbers come from? From the Immune Epitope Database (IEDB).
